- Tested on: Escherichia coli TOP10
- TEST SUMMARY: shrunken log2 fold change of peptide-encoding DNA abundance (4.5 h post-induction vs induction); higher = less antimicrobial activity (less host growth inhibition)
- STATED CONDITIONS: time post-induction: 4.5 h; library: site-saturation at positions 5, 18, 19, 20
Answer Not fulfilled if shrunken log2 fold change is under -0.002, and Fulfilled if it is -0.002 or more.

Consider the worked cases shown below.
CONSTRUCT SEQUENCE: RRIRYRPPRLPRPRPRPTDHPRP
CAT: Not fulfilled
--
CONSTRUCT SEQUENCE: RRIRCRPPRLPRPRPRPNFMPRP
CAT: Not fulfilled
--
CONSTRUCT SEQUENCE: RRIRNRPPRLPRPRPRPCHHPRP
CAT: Not fulfilled

Exercise: Textbook exercise: given the entry "RRIRFRPPRLPRPRPRPVINPRP" , state whether its shrunken log2 fold change is greater than or equal to -0.002.
Key: Not fulfilled

Exercise: Textbook exercise: given the entry "RRIRDRPPRLPRPRPRPTFEPRP" , state whether its shrunken log2 fold change is greater than or equal to -0.002.
Key: Fulfilled

Exercise: Textbook exercise: given the entry "RRIRIRPPRLPRPRPRPREWPRP" , state whether its shrunken log2 fold change is greater than or equal to -0.002.
Key: Fulfilled

Exercise: Textbook exercise: given the entry "RRIRDRPPRLPRPRPRPEVVPRP" , state whether its shrunken log2 fold change is greater than or equal to -0.002.
Key: Not fulfilled

Exercise: Textbook exercise: given the entry "RRIRMRPPRLPRPRPRPCLYPRP" , state whether its shrunken log2 fold change is greater than or equal to -0.002.
Key: Not fulfilled

Exercise: Textbook exercise: given the entry "RRIRYRPPRLPRPRPRPTWYPRP" , state whether its shrunken log2 fold change is greater than or equal to -0.002.
Key: Not fulfilled

Exercise: Textbook exercise: given the entry "RRIRGRPPRLPRPRPRPLRMPRP" , state whether its shrunken log2 fold change is greater than or equal to -0.002.
Key: Fulfilled

---

- System: Escherichia coli TOP10
- TEST SUMMARY: shrunken log2 fold change of peptide-encoding DNA abundance (4.5 h post-induction vs induction); higher = less antimicrobial activity (less host growth inhibition)
- STATED CONDITIONS: time post-induction: 4.5 h; library: site-saturation at positions 5, 18, 19, 20
Reported shrunken log2 fold change is given for each of the following sequences.
When you answer, write just the number.

Exercise: Return reported shrunken log2 fold change; argument: "RRIRPRPPRLPRPRPRPQCVPRP"
Key: 0.14

Exercise: Return reported shrunken log2 fold change; argument: "RRIRCRPPRLPRPRPRPEIFPRP"
Key: -0.422

Exercise: Return reported shrunken log2 fold change; argument: "RRIRKRPPRLPRPRPRPVPAPRP"
Key: 0.648

Exercise: Return reported shrunken log2 fold change; argument: "RRIRIRPPRLPRPRPRPHWDPRP"
Key: -0.248

Exercise: Return reported shrunken log2 fold change; argument: "RRIRTRPPRLPRPRPRPTMNPRP"
Key: -0.371

Exercise: Return reported shrunken log2 fold change; argument: "RRIRIRPPRLPRPRPRPCTCPRP"
Key: -0.652

Exercise: Return reported shrunken log2 fold change; argument: "RRIRYRPPRLPRPRPRPVWHPRP"
Key: -0.0131

Exercise: Return reported shrunken log2 fold change; argument: "RRIRYRPPRLPRPRPRPECEPRP"
Key: -0.185

---

- Tested on: Escherichia coli TOP10
- TEST SUMMARY: shrunken log2 fold change of peptide-encoding DNA abundance (4.5 h post-induction vs induction); higher = less antimicrobial activity (less host growth inhibition)
- STATED CONDITIONS: time post-induction: 4.5 h; library: site-saturation at positions 5, 18, 19, 20
Answer not satisfied if shrunken log2 fold change is under -0.02, and satisfied if it is -0.02 or more.

Consider the worked cases shown below.
CONSTRUCT SEQUENCE: RRIRERPPRLPRPRPRPSQYPRP
CAT: not satisfied

CONSTRUCT SEQUENCE: RRIRGRPPRLPRPRPRPQLYPRP
CAT: satisfied

CONSTRUCT SEQUENCE: RRIRQRPPRLPRPRPRPTAHPRP
CAT: not satisfied

CONSTRUCT SEQUENCE: RRIRERPPRLPRPRPRPYHTPRP
CAT: satisfied

Exercise: Textbook exercise: given the entry "RRIRLRPPRLPRPRPRPRVVPRP" , state whether its shrunken log2 fold change is greater than or equal to -0.02.
Key: not satisfied

Exercise: Textbook exercise: given the entry "RRIRKRPPRLPRPRPRPHIVPRP" , state whether its shrunken log2 fold change is greater than or equal to -0.02.
Key: satisfied

Exercise: Textbook exercise: given the entry "RRIRFRPPRLPRPRPRPRTHPRP" , state whether its shrunken log2 fold change is greater than or equal to -0.02.
Key: satisfied

Exercise: Textbook exercise: given the entry "RRIRLRPPRLPRPRPRPVQQPRP" , state whether its shrunken log2 fold change is greater than or equal to -0.02.
Key: satisfied

Exercise: Textbook exercise: given the entry "RRIRRRPPRLPRPRPRPEAGPRP" , state whether its shrunken log2 fold change is greater than or equal to -0.02.
Key: satisfied

---

- Test system: Escherichia coli TOP10
- TEST SUMMARY: shrunken log2 fold change of peptide-encoding DNA abundance (4.5 h post-induction vs induction); higher = less antimicrobial activity (less host growth inhibition)
- STATED CONDITIONS: time post-induction: 4.5 h; library: site-saturation at positions 5, 18, 19, 20
OUTCOME MEASURE: shrunken log2 fold change
When you answer, write just the number.

CONSTRUCT SEQUENCE: RRIRKRPPRLPRPRPRPNVQPRP
REPORTED MEASUREMENT: 0.179

Let us examine a further case.
Exercise: Write down the reported shrunken log2 fold change of "RRIRERPPRLPRPRPRPSMIPRP" , test system: Escherichia coli TOP10.
Key: -0.171

---

- Test system: Escherichia coli TOP10
- TEST SUMMARY: shrunken log2 fold change of peptide-encoding DNA abundance (4.5 h post-induction vs induction); higher = less antimicrobial activity (less host growth inhibition)
- STATED CONDITIONS: time post-induction: 4.5 h; library: site-saturation at positions 5, 18, 19, 20
param class (str): category from shrunken log2 fold change; see ranges range 1 = under -0.1, range 2 = from -0.1 up to 0.3, range 3 = 0.3 and over

CONSTRUCT SEQUENCE: RRIRLRPPRLPRPRPRPPDSPRP
CAT: range 2

CONSTRUCT SEQUENCE: RRIRTRPPRLPRPRPRPTAAPRP
CAT: range 2

CONSTRUCT SEQUENCE: RRIRCRPPRLPRPRPRPLRMPRP
CAT: range 3

CONSTRUCT SEQUENCE: RRIRKRPPRLPRPRPRPMAKPRP
CAT: range 3

CONSTRUCT SEQUENCE: RRIRNRPPRLPRPRPRPINGPRP
CAT: range 1

Exercise: Which category fits this record: "RRIRGRPPRLPRPRPRPRCEPRP"
Key: range 3

---

Reported shrunken log2 fold change is given for each of the following sequences.
- Test system: Escherichia coli TOP10
- TEST SUMMARY: shrunken log2 fold change of peptide-encoding DNA abundance (4.5 h post-induction vs induction); higher = less antimicrobial activity (less host growth inhibition)
- STATED CONDITIONS: time post-induction: 4.5 h; library: site-saturation at positions 5, 18, 19, 20
When you answer, write just the number.

CONSTRUCT SEQUENCE: RRIRKRPPRLPRPRPRPARLPRP
MEASUREMENT TARGET: Escherichia coli TOP10
REPORTED MEASUREMENT: 0.434

CONSTRUCT SEQUENCE: RRIRMRPPRLPRPRPRPHWHPRP
MEASUREMENT TARGET: Escherichia coli TOP10
REPORTED MEASUREMENT: 0.0139

CONSTRUCT SEQUENCE: RRIRHRPPRLPRPRPRPKGRPRP
MEASUREMENT TARGET: Escherichia coli TOP10
REPORTED MEASUREMENT: 0.0526

CONSTRUCT SEQUENCE: RRIRVRPPRLPRPRPRPFELPRP
MEASUREMENT TARGET: Escherichia coli TOP10
REPORTED MEASUREMENT: 0.0193

CONSTRUCT SEQUENCE: RRIRYRPPRLPRPRPRPYHAPRP
MEASUREMENT TARGET: Escherichia coli TOP10
REPORTED MEASUREMENT: -0.194

CONSTRUCT SEQUENCE: RRIRPRPPRLPRPRPRPDWFPRP
MEASUREMENT TARGET: Escherichia coli TOP10
REPORTED MEASUREMENT: 0.0805

CONSTRUCT SEQUENCE: RRIRVRPPRLPRPRPRPWWDPRP
MEASUREMENT TARGET: Escherichia coli TOP10
REPORTED MEASUREMENT: 0.00445

CONSTRUCT SEQUENCE: RRIRLRPPRLPRPRPRPGFGPRP
MEASUREMENT TARGET: Escherichia coli TOP10
REPORTED MEASUREMENT: 0.189

CONSTRUCT SEQUENCE: RRIRPRPPRLPRPRPRPLYFPRP
MEASUREMENT TARGET: Escherichia coli TOP10
REPORTED MEASUREMENT: -0.602

CONSTRUCT SEQUENCE: RRIRERPPRLPRPRPRPNSPPRP
MEASUREMENT TARGET: Escherichia coli TOP10;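 further: peptides expressed intracellularly from a pBAD plasmid library in pooled LB shake-flask culture, induced with 0.3% L-arabinose, DNA abundance read by NGS, three biological replicates, DESeq2 with apeglm shrinkage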
REPORTED MEASUREMENT: -0.00647

Exercise: Return reported shrunken log2 fold change; argument: "RRIRMRPPRLPRPRPRPEECPRP"
Key: 0.0665

Exercise: Return reported shrunken log2 fold change; argument: "RRIRMRPPRLPRPRPRPITWPRP"
Key: -0.327

Exercise: Return reported shrunken log2 fold change; argument: "RRIRMRPPRLPRPRPRPEMGPRP"
Key: 2.44

Exercise: Return reported shrunken log2 fold change; argument: "RRIRDRPPRLPRPRPRPLERPRP"
Key: 0.464
